System tested: T1, CRF1R receptor (UniProt P34998 24-415, limits assumed)
T1 sequence (looked up): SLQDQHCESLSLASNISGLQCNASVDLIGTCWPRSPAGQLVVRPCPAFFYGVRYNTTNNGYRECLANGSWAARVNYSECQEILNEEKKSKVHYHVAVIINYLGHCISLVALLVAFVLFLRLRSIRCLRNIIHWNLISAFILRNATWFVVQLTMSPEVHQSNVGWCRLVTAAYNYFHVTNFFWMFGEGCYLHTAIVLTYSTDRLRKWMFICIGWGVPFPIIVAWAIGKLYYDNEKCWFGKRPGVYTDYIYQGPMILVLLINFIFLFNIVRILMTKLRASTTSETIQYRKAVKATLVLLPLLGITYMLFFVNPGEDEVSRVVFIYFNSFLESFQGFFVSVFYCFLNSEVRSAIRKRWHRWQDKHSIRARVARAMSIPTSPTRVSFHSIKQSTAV
Assay procedure: cell-based or functional assay
*1 amine or outer side, *2 acyl side, *3 side chain or, on linkers, in order; H or OH if unused. Primed or numbered codes have the meaning given here. Where no end group is shown, it is not given here. Side-chain parts run from the residue outwards. [ ]: non-standard residue; d: D form. The star is where a group is joined. Thp′ = 4-amino-tetrahydro-2H-pyran-4-yl-acetic acid, O=C(CC1(N[*:1])CCOCC1)[*:2]; C20 diacid = O=C(O)CCCCCCCCCCCCCCCCCCC(=O)*; C18 diacid = O=C(O)CCCCCCCCCCCCCCCCC(=O)*; C16 diacid = O=C(O)CCCCCCCCCCCCCCC(=O)*; γGlu = O=C(O)[C@H](CCC(=O)[*:2])N[*:1]; αMeL = CC(C)C[C@](C)(N)C(=O)O; αMeK = C[C@](N)(CCCCN)C(=O)O; Pentanoyl = CCCCC(=O)*; AEEA = NCCOCCOCC(=O)O; Aib = CC(C)(N)C(=O)O
Recorded Emax (% I), one value per entry.
Measured endpoint: Emax (% I)

- Binder: "Ac-IVLSLD[dV]PIKLK([γGlu-C16 diacid])KILLEQEKQKKQREQAETN[Thp′]QILAQV-NH2 [SEQ ID NO 58]"
  Recorded measurement: "6%"
- Binder: "Ac-IVLSLD[dV]PIKLK([AEEA-AEEA-γGlu-C18 diacid])KILLEQEKQKKQREQAETN[αMeK]QILAQV-NH2 (not fully specified) [SEQ ID NO 106]"
  Recorded measurement: "6%"
- Binder: "Ac-IVLSLD[dV]PIKLK([AEEA-AEEA-γGlu-C18 diacid])KILLEQEKQKKQREQAETN[Thp′]QILAQV-NH2 [SEQ ID NO 198]"
  Recorded measurement: "8%"
- Binder: "IVLSLD[dV]PIKLK([AEEA-AEEA-γGlu-γGlu-C16 diacid])QILLKQERQKKQREQAEKNKQILEQV-NH2 [SEQ ID NO 146]"
  Recorded measurement: "27%"
- Binder: "Pentanoyl-VLSLD[dV]PIK[αMeL]K([AEEA-AEEA-γGlu-C18 diacid])KILLEQEKQKKQREQAETN[Aib]QILAQV-NH2 [SEQ ID NO 123]"
  Recorded measurement: "14%"
- Binder: "Ac-IVLSLD[dV]PIKLK([γGlu-C20 diacid])KILLEQEKQKKQREQAETN[Thp′]QILAQV-NH2 [SEQ ID NO 210]"
  Recorded measurement: "35%"
- Binder: "VLSLD[dV]PIKLK([γGlu-C16 diacid])QILLKQERQKKQREQAEKNKQILEQV-NH2 [SEQ ID NO 4]"
  Recorded measurement: "4%"
- Binder: "Pentanoyl-VLSLD[dV]PIK[αMeL]K([AEEA-AEEA-γGlu-C18 diacid])KILLEQEKQKKQREQAETNVQILAQV-NH2 [SEQ ID NO 124]"
  Recorded measurement: "14%"
